Target: Urotensin-2 receptor (Homo sapiens)
Assay: Agonist activity against human urotensin 2 receptor expressed in […] cells assessed as beta-galactosidase activity after 5 days by R-SAT assay relative to Urotensin-2
Type: functional, cell-based
The source made the active and inactive calls. The calls are words filed in the database; no cut-off is given here.
endpoint label: Efficacy

[[record]]
molecule = "Cc1cc2c(cc1C)C(=O)OC(CCN(C)C)(c1ccc3ccccc3c1)C2 (configuration not stated)"
reported_result = "126%"

[[record]]
molecule = "CN(C)CCC1(c2ccc(-c3ccccc3)cc2)Cc2ccccc2C(=O)O1 (configuration not stated)"
reported_result = "inactive"

[[record]]
molecule = "Cc1cc2c(cc1C)CC(CCN(C)C)(c1ccc(Cl)cc1)OC2 (configuration not stated)"
reported_result = "47%"

[[record]]
molecule = "COc1ccc2c(c1)CC(CCN(C)C)(c1ccc(Cl)cc1)OC2=O (configuration not stated)"
reported_result = "165%"

[[record]]
molecule = "Cc1cc2c(cc1C)CC(CCN(C)C)(c1ccc3ccccc3c1)OC2 (configuration not stated)"
reported_result = "49%"

[[record]]
molecule = "CN(C)CCC1(c2ccc(Cl)cc2)Cc2ccccc2CO1 (configuration not stated)"
reported_result = "110%"

[[record]]
molecule = "CN(C)CCC1(c2ccc(C#Cc3ccccc3)cc2)Cc2ccccc2C(=O)O1 (configuration not stated)"
reported_result = "inactive"

[[record]]
molecule = "CN(C)CCC1(c2cccc(-c3ccccc3)c2)Cc2ccccc2C(=O)O1 (configuration not stated)"
reported_result = "50%"

[[record]]
molecule = "CN(C)CCC1(c2ccc(Oc3ccccc3)cc2)Cc2ccccc2C(=O)O1 (configuration not stated)"
reported_result = "54%"

[[record]]
molecule = "C[N+](C)(C)CCC1(c2ccc(Cl)cc2)Cc2ccccc2C(=O)O1 (configuration not stated)"
reported_result = "118%"

[[record]]
molecule = "CN(C)CCC1(c2ccc(Cl)c(Cl)c2)Cc2ccccc2C(=O)O1 (configuration not stated)"
reported_result = "172%"

[[record]]
molecule = "CN(C)CCC1(c2ccc(Cl)cc2)Cc2ccccc2C(=O)N1C (configuration not stated)"
reported_result = "152%"

[[record]]
molecule = "CN(C)CCC1(c2ccc(Cl)cc2)Cc2ccc3ccccc3c2C(=O)O1 (configuration not stated)"
reported_result = "124%"

[[record]]
molecule = "CN(C)CCC1(c2cccc(Br)c2)Cc2ccccc2C(=O)O1 (configuration not stated)"
reported_result = "68%"

[[record]]
molecule = "COc1cccc2c1CC(CCN(C)C)(c1ccc(Cl)cc1)N(C)C2=O (configuration not stated)"
reported_result = "151%"

[[record]]
molecule = "CC(C)N1C(=O)c2ccccc2CC1(CCN(C)C)c1ccc(Cl)cc1 (configuration not stated)"
reported_result = "145%"

[[record]]
molecule = "Cc1cc2c(cc1C)C(=O)OC(CCN(C)C)(c1ccc(Cl)c(Cl)c1)C2 (configuration not stated)"
reported_result = "98%"

[[record]]
molecule = "COc1cc(OC)cc(C2(CCN(C)C)Cc3cc(C)c(C)cc3C(=O)O2)c1 (configuration not stated)"
reported_result = "156%"

[[record]]
molecule = "CN(C)CCC1(c2ccc(Cl)cc2)Cc2cc(-c3ccccc3)ccc2C(=O)O1 (configuration not stated)"
reported_result = "inactive"

[[record]]
molecule = "CNCCC1(c2ccc(Cl)cc2)Cc2ccccc2C(=O)O1 (configuration not stated)"
reported_result = "46%"

[[record]]
molecule = "COc1cccc(C2(CCN(C)C)Cc3cc(C)c(C)cc3C(=O)O2)c1 (configuration not stated)"
reported_result = "149%"

[[record]]
molecule = "C=CCN(C)CCC1(c2ccc(Cl)cc2)Cc2ccccc2C(=O)O1 (configuration not stated)"
reported_result = "77%"


This collection of values is drawn from ChEMBL document CHEMBL1177636.
